Just for reference, patent US20240025907A1 is where these values come from.

System: KRas-mediated Phosphorylation of ERK in HCT116 cells
Assay: Cisbio HTRF pERK assay, HCT116 cells
Format: cell-based
Details: Homo sapiens, HCT-116, HCT116 cells, single point at 100 nM
// map inhibition at 0.1 µM onto a label; ranges low range: < 20%; mid range: ≥ 20% and < 50%; high range: ≥ 50%

// bin(item) where item = O=S1(=O)NCC2(CCCN(c3nc(OC[C@@]45CCCN4C[C@H](F)C5)nc4c(F)c(-c5cc(O)cc6ccc(F)c(Cl)c56)c(F)cc34)C2)N1 (stereo partly shown) [Example 45]
high range

----------
Documented inhibition at 0.1 µM across a set of compounds
Test system: KRas-mediated Phosphorylation of ERK in HCT116 cells
Assay: Cisbio HTRF pERK assay, HCT116 cells
Assay type: cell-based
Conditions: Homo sapiens, HCT-116, HCT116 cells, single point at 100 nM
Lab book: enter the figure in %, no units written.

CCc1c(F)ccc2cc(O)cc(-c3ccc4c(N5CCCn6nc(C(=O)N7CCOCC7)c(Cl)c6C5)nc(OC[C@@]56CCCN5C[C@H](F)C6)nc4c3F)c12; 48

Identify the measured inhibition at 0.1 µM of CCc1c(F)ccc2cc(O)cc(-c3ccc4c(N5CCCC6(CCO6)C5)nc(OC[C@@]56CCCN5C[C@H](F)C6)nc4c3F)c12 (stereo partly drawn) for KRas-mediated Phosphorylation of ERK in HCT116 cells.
38

Okay, and CCc1c(F)ccc2cc(O)cc(-c3ccc4c(N5CCCC6(CNS(=O)(=O)N6)C5)nc(OCC5(CN(C)C)CC5)nc4c3F)c12 (stereo not drawn) ?
0

Next compound: CCc1c(F)ccc2cc(O)cc(-c3c(F)cc4c(N5CCCC6(CNC(=O)N6)C5)nc(OCC5(CN(C)C)CC5)nc4c3F)c12 (stereo not drawn)
13

Another compound to look at: CCc1c(F)ccc2cc(O)cc(C3Cc4nc(OC[C@@]56CCCN5C[C@H](F)C6)nc(N5CCCC6(C5)NC(=O)NC6=O)c4CO3)c12 (stereo partly drawn)
-5

Another compound: CCc1c(F)ccc2cc(O)cc(-c3c(F)cc4c(N5CCCn6nc(C(=O)N7CCCC7)cc6C5)nc(OC[C@@]56CCCN5C[C@H](F)C6)nc4c3F)c12
12
